target: 3-hydroxy-3-methylglutaryl-coenzyme A reductase (Rattus norvegicus); experiment: The compound was tested in vitro for inhibition of rat hepatic HMG-CoA reductase.; format: functional; conditions: read-out: I50
Sequence (P51639 whole entry): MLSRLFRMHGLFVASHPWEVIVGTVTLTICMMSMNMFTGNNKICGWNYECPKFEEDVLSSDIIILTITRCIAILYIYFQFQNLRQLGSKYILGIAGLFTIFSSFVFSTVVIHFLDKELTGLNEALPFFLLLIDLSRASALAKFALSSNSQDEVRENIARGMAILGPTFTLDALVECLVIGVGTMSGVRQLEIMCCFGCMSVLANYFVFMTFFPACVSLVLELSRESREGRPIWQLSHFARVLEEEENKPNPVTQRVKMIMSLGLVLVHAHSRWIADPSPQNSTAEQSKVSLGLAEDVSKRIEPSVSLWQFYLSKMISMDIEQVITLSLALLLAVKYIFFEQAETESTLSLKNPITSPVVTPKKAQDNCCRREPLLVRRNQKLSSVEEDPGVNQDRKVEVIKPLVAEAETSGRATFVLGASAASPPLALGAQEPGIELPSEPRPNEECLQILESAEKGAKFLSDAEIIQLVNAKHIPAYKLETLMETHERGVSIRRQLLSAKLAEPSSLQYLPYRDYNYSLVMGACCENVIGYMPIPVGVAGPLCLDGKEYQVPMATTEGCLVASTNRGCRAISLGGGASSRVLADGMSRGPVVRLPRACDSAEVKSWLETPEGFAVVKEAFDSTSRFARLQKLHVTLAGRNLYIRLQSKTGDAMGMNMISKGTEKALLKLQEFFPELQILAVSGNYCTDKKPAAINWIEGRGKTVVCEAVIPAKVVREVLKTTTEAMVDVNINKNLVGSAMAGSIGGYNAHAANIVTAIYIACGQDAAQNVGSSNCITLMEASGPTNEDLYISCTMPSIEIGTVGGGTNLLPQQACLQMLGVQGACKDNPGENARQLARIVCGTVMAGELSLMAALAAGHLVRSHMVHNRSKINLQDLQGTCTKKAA
Observation type: pIC50
Lab note — pIC50 values are minus log10 of concentrations in M.

Known pIC50 results, listed for orientation:
> print(dat)
                                   compound  reported.value
1  O=C(O)C[C@@H](O)CP(=O)(O)OCc1c(-c2ccc(F)cc2)cc(-c2ccccc2)nc1C1CC1            7.54
2  Cc1nc(-c2ccccc2)c(C)c(-c2ccc(F)cc2)c1COP(=O)(O)C[C@H](O)CC(=O)O            5.89
3  CC(C)c1nc(-c2ccccc2)cc(-c2ccc(F)cc2)c1COP(=O)(O)C[C@H](O)CC(=O)O            7.90
4  CC(C)c1nc(C(C)(C)C)cc(-c2ccc(F)cc2)c1COP(=O)(O)C[C@H](O)CC(=O)O            8.85
5  CC(C)c1nc2c(c(-c3ccc(F)cc3)c1COP(=O)(O)C[C@H](O)CC(=O)O)CCCc1ccccc1-2            8.92
6  CCc1c(-c2ccccc2)nc(C(C)C)c(COP(=O)(O)C[C@H](O)CC(=O)O)c1-c1ccc(F)cc1            8.60

Query: Which pIC50 is reported with 3-hydroxy-3-methylglutaryl-coenzyme A reductase (Rattus norvegicus) for this entry: Cc1c(-c2ccccc2)nc(C(C)C)c(COP(=O)(O)C[C@H](O)CC(=O)O)c1-c1ccc(F)cc1 ?
Reply: 8.29

Query: Which pIC50 is reported with 3-hydroxy-3-methylglutaryl-coenzyme A reductase (Rattus norvegicus) for this entry: Cc1c(-c2ccccc2)nc(C2CC2)c(COP(=O)(O)C[C@H](O)CC(=O)O)c1-c1ccc(F)cc1 ?
Reply: 8.89

Query: Which pIC50 is reported with 3-hydroxy-3-methylglutaryl-coenzyme A reductase (Rattus norvegicus) for this entry: CCc1nc(-c2ccccc2)c(C)c(-c2ccc(F)cc2)c1COP(=O)(O)C[C@H](O)CC(=O)O ?
Reply: 7.71

Query: Which pIC50 is reported with 3-hydroxy-3-methylglutaryl-coenzyme A reductase (Rattus norvegicus) for this entry: CC[C@H](C)C(=O)O[C@H]1C[C@H](O)C=C2C=C[C@H](C)[C@H](CC[C@@H](O)C[C@@H](O)CC(=O)[O-])[C@H]21.[Na+] [PRAVASTATIN SODIUM] ?
Reply: 7.62
